assayedSystem: Bcl-2 protein (Homo sapiens, UniProt P10415, DELINS35-91DVEENRTEAPEGTESE, form not given)
Construct: fused on or other part: Bcl-xL (Q07817) residues 29-44 stand in place of Bcl-2's own unstructured loop 35-91; The C-terminal membrane anchor (208-239) is absent
Sequence (P10415 with tags, fused parts or gaps with the stated changes): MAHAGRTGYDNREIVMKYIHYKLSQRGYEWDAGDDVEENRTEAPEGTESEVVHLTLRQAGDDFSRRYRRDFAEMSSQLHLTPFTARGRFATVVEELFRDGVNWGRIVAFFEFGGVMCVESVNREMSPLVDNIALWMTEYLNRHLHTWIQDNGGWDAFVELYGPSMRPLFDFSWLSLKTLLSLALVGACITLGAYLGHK
assayProtocol: Bcl-2 fluorescence polarization assay (FPA) binding
details: 10 nM Bcl-2 protein, 1 nM fluorescein-labeled BAX peptide, room temperature, read-out: Bcl-2 FPA 11pt Ki
Please respond with reported Ki for every item in the list.
A number alone suffices; assume nM.

get_value(item= C[C@@H]1[C@@H](NC2CCC(C)(C)CC2CN2CCN(c3ccc(C(=O)NS(=O)(=O)c4ccc(NCC5CCOCC5)c([N+](=O)[O-])c4)cc3)CC2)C[C@@H]2C[C@H]1C2(C)C (stereo partly drawn) [Example 21] , readout=Ki) returns 5600

get_value(item= C[C@@H]1[C@@H](N2CCN(c3ccc(C(=O)NS(=O)(=O)c4ccc(NCC5CCCCC5)c([N+](=O)[O-])c4)cc3)CC2)C[C@H]2C[C@@H]1C2(C)C [Example 53] , readout=Ki) returns 845

get_value(item= O=C(NS(=O)(=O)c1ccc(NCC2CCOCC2)c([N+](=O)[O-])c1)c1ccc(N2CCN(Cc3ccccc3C3=CC4CC5CC(C4)CC3C5)CC2)cc1 [Example 34] , readout=Ki) returns 47.7

Entry source: patent US8188077B2
